- Test system: VEGF-D neutralizing monoclonal antibody mAb 4A5 (VDnmAb)
- Assay details: ELISA of biotinylated synthetic peptides on streptavidin plates for VDnmAb binding
- Study conditions: 2nd peptide library; 10 pmol peptide; VDnmAb 2 μg/ml; signal more than two-fold greater than background considered positive
No end group written: not given here. *: point of attachment. Biotin = O=C1N[C@H]2[C@H](CS[C@H]2CCCCC(=O)*)N1
Property name: VDnmAb binding to peptide (ELISA signal, absorbance at 405 nm)

Substance	Target of assay	Experimental value
NVFRCGGCCNEESL (Biotin-SGSGNVFRCGGCCNEESL; cysteine pairing not given here) [peptide 13 (SEQ ID NO: 52), residues 138 to 151 of human VEGF-D, N-terminal biotin and SGSG linker]	VEGF-D neutralizing monoclonal antibody mAb 4A5 (VDnmAb)	positive
FRCGGCCNEESL (Biotin-SGSGFRCGGCCNEESL; cysteine pairing not given here) [peptide 15 (SEQ ID NO: 54), residues 140 to 151 of human VEGF-D, 2nd library, N-terminal biotin and SGSG linker]	VEGF-D neutralizing monoclonal antibody mAb 4A5 (VDnmAb)	positive
